Biological target: rat sucrase (partially purified alpha-glucosidase from intestinal rat powder) (Rattus norvegicus, UniProt P23739)
Sequence (P23739 whole entry): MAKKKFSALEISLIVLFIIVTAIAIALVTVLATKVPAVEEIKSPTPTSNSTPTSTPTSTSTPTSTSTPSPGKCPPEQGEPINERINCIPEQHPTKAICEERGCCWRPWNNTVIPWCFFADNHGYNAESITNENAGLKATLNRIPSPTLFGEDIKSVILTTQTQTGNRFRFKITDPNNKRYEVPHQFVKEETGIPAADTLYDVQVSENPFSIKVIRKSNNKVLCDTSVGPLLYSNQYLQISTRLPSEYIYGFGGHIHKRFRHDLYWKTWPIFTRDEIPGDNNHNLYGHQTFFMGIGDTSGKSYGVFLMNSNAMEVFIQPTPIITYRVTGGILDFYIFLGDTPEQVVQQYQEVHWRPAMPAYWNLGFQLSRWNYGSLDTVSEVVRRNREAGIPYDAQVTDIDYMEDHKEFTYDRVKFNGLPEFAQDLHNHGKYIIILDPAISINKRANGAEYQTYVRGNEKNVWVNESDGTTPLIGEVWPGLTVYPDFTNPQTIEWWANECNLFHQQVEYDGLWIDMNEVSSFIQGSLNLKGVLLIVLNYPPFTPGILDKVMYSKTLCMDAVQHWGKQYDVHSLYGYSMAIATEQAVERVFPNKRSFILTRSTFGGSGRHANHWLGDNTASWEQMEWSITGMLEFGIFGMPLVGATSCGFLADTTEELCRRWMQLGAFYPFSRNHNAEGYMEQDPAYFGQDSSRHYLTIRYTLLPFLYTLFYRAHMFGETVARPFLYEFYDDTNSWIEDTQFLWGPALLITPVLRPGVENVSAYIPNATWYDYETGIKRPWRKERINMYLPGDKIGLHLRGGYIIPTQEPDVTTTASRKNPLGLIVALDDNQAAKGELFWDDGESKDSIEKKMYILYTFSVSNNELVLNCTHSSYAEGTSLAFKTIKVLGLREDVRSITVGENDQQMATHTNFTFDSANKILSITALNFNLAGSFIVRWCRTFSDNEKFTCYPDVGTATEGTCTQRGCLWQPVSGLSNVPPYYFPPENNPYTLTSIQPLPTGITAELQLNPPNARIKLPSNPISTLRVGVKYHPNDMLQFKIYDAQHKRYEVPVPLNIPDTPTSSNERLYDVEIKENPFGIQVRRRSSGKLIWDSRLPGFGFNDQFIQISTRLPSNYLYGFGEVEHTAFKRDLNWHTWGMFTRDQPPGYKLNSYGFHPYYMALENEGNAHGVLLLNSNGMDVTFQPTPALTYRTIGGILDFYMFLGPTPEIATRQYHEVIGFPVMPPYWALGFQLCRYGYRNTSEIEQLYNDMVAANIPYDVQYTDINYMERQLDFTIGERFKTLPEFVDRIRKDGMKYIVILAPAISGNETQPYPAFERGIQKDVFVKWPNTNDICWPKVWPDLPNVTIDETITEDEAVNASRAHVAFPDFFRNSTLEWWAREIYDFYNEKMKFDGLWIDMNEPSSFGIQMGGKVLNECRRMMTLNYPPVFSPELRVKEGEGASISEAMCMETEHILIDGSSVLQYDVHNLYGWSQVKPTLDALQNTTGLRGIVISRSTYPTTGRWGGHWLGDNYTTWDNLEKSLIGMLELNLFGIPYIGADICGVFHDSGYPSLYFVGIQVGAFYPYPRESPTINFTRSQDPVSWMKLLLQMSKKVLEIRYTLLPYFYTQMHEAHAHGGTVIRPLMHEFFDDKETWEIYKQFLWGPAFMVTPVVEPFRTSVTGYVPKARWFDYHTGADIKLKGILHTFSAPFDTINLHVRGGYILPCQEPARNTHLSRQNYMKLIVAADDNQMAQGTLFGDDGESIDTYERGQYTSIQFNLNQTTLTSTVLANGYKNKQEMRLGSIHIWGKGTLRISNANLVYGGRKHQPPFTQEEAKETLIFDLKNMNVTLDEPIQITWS
endpoint-label: pIC50
// scale note: pIC50 = -log10(conc_M); give the bare number

State the recorded pIC50 for this entry: O=C(O)c1cc(NCCCCCCN2C[C@H](O)[C@@H](O)[C@H](O)[C@H]2CO)cc(-c2ncccn2)c1 [Compound 1118]
7.24

State the recorded pIC50 for this entry: N#Cc1cc(Br)cc(NCc2cccc(CN3C[C@H](O)[C@@H](O)[C@H](O)[C@H]3CO)c2)c1 [Compound 1023]
7.18

State the recorded pIC50 for this entry: O=[N+]([O-])c1cc(-c2ncccn2)ccc1NCc1cccc(CN2C[C@H](O)[C@@H](O)[C@H](O)[C@H]2CO)c1 [Compound 1090]
8.70

State the recorded pIC50 for this entry: [N-]=[N+]=Nc1ccc(NCCc2cc(CCN3C[C@H](O)[C@@H](O)[C@H](O)[C@H]3CO)ccc2C2CCCCC2)c([N+](=O)[O-])c1 [Compound 1171]
4.97

State the recorded pIC50 for this entry: [N-]=[N+]=Nc1ccc(NCCCCCCN2C[C@H](O)[C@@H](O)[C@H](O)[C@H]2CO)c(C(N)=O)c1 [Compound 1296]
6.31

State the recorded pIC50 for this entry: OC[C@@H]1[C@@H](O)[C@H](O)[C@@H](O)CN1Cc1cccc(CNc2ccc(C3=COCCO3)cc2)c1 [Compound 1066]
7.59

State the recorded pIC50 for this entry: OC[C@@H]1[C@@H](O)[C@H](O)[C@@H](O)CN1CCc1ccc(CCNc2cc(Cl)cc(-c3ccco3)c2)cc1 [Compound 1159]
6.07

State the recorded pIC50 for this entry: CN(C)Cc1ccc(NCCCCCCN2C[C@H](O)[C@@H](O)[C@H](O)[C@H]2CO)c(C#N)c1 [Compound 1257]
7.15

State the recorded pIC50 for this entry: Cc1cc(NCc2cnc(CN3C[C@H](O)[C@@H](O)[C@H](O)[C@H]3CO)cn2)cc(N2CCOCC2)c1 [Compound 1332]
5.46

State the recorded pIC50 for this entry: OC[C@@H]1[C@@H](O)[C@H](O)[C@@H](O)CN1Cc1ccc(CNc2ccc(N3CCOCC3)cc2)cc1 [Compound 1068]
6.85

State the recorded pIC50 for this entry: Nc1ccc(NCCn2cc(CCN3C[C@H](O)[C@@H](O)[C@H](O)[C@H]3CO)nn2)c([N+](=O)[O-])c1Cl [Compound 1253]
5.46

State the recorded pIC50 for this entry: O=[N+]([O-])c1cc(N2CCOCC2)ccc1NCc1ccc(CN2C[C@@H](O)[C@H](O)[C@@H](O)[C@@H]2CO)cc1 (stereo in doubt) [Compound 1069]
8.10

* * *

Biological target: rat sucrase (partially purified alpha-glucosidase from intestinal rat powder) (Rattus norvegicus, UniProt P23739)
Assay: Intestinal alpha-glucosidase assay, sucrose substrate (Glucose GO Kit)
Assay type: biochemical
endpoint-label: IC50 (nM)
Write the value in nM as a bare number.

State the recorded IC50 for this entry: COc1cc(NCCc2ccc(CCN3C[C@H](O)[C@@H](O)[C@H](O)[C@H]3CO)cc2)cc(-c2ncccn2)c1 [Compound 1156]
610

State the recorded IC50 for this entry: Cc1cc(NCc2ccc(CN3C[C@H](O)[C@@H](O)[C@H](O)[C@H]3CO)cc2)cc(N2CCOCC2)c1 [Compound 1048]
59

State the recorded IC50 for this entry: OC[C@@H]1[C@@H](O)[C@H](O)[C@@H](O)CN1CCCCCCNc1ccc(-c2cnccn2)cc1Cl [Compound 1198]
1

State the recorded IC50 for this entry: Cc1cc(NCc2ccc(CN3C[C@H](O)[C@@H](O)[C@H](O)[C@H]3CO)cc2)cc(-n2ccnn2)c1 [Compound 1323]
37
